Test: Half life was determined by administering the compound intravenously at a dose of 1 mg/kg in male wistar rat
Assay type: ADME, organism-based
Parameters: dose 1 mg/kg, route intravenous
Details: in vivo, iv
Quick list: half-life per entry.
measurement name: half-life (min)

{"columns": ["entry smiles", "observed result"],
 "data": [
  ["O=C(CCn1c2c(c(=O)[nH]c1=O)CSCC2)NCC(=O)N1CCN(c2ccccc2)CC1", 24],
  ["COc1ccc(N2CCN(C(=O)CNC(=O)CCn3c4c(c(=O)[nH]c3=O)CSCC4)CC2)cc1", 12],
  ["O=C(CCn1c2c(c(=O)[nH]c1=O)CSCC2)NCC(=O)c1ccc(-c2cccnn2)cc1", 18],
  ["O=C(CCn1c2c(c(=O)[nH]c1=O)CSCC2)NCC(=O)N1CCN(c2cc(C(F)(F)F)ccn2)CC1", 18],
  ["O=C(CCn1c2c(c(=O)[nH]c1=O)CSCC2)NCC(=O)N1CCN(c2ncccn2)CC1", 12],
  ["O=C(CCn1c2c(c(=O)[nH]c1=O)CSCC2)NCC(=O)N1CCN(c2ccccn2)CC1", 72],
  ["O=C(CCn1c2c(c(=O)[nH]c1=O)CCCC2)NCC(=O)c1ccc2ccccc2c1", 42]
]}

* * *

Target: Poly [ADP-ribose] polymerase 1 (Homo sapiens, UniProt P09874)
Sequence (P09874 whole entry): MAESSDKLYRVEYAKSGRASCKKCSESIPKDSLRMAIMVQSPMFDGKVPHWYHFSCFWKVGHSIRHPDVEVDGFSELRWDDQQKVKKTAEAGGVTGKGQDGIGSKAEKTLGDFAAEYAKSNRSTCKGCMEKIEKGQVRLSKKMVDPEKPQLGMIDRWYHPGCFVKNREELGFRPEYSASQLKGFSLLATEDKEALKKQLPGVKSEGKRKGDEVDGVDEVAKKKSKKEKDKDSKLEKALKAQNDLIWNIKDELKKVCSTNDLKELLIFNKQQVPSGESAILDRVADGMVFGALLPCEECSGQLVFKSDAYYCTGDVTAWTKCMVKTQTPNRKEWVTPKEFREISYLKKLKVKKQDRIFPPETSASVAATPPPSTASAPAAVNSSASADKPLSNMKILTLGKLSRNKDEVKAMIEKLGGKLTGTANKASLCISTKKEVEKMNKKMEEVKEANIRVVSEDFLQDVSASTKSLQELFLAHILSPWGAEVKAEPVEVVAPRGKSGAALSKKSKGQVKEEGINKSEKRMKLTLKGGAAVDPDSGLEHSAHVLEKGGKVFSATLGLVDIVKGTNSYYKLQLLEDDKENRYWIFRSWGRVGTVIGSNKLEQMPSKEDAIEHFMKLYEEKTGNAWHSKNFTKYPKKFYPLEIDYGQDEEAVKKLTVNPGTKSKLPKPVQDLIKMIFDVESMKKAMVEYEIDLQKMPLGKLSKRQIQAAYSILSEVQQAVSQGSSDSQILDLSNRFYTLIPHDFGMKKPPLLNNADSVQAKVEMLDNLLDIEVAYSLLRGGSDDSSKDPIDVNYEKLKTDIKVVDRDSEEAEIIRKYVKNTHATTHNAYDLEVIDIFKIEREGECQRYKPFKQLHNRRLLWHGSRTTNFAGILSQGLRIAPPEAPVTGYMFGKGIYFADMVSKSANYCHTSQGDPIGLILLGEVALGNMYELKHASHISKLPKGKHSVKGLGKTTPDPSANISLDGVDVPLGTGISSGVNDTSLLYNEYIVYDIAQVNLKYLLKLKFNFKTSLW
Assay: Inhibitory activity against human recombinant PARP-1
Quick list: IC50 per entry.

{"columns": ["entry smiles", "IC50"],
 "data": [
  ["O=C(CCn1c2c(c(=O)[nH]c1=O)CSCC2)NCC(=O)c1ccc(-c2cccnc2)cc1", "12 nM"],
  ["C=CCCc1c(CC=C)c(=O)[nH]c(=O)n1CCC(=O)NCC(=O)N1CCN(c2ncccn2)CC1", "> 5000 nM"],
  ["O=C(CCn1c2c(c(=O)[nH]c1=O)CSCC2)NCC(=O)c1cccc(Br)c1", "70 nM"],
  ["O=C(CCn1c2c(c(=O)[nH]c1=O)CSCC2)NCC(=O)c1ccc(-c2cncnc2)cc1", "25 nM"],
  ["O=C(CCn1c2c(c(=O)[nH]c1=O)CSCC2)NCC(=O)c1cccc(-c2ccccc2)c1", "70 nM"],
  ["O=C(Cn1c2c(c(=O)[nH]c1=O)CSCC2)NCC(=O)N1CCN(c2ncccn2)CC1", "150 nM"],
  ["O=C(CCn1c2c(c(=O)[nH]c1=O)CSCC2)NCC(=O)c1ccc(OC(F)F)cc1", "30 nM"],
  ["O=C(CCn1c2c(c(=O)[nH]c1=O)CSCC2)NCC(=O)c1ccc(Cl)cc1", "60 nM"],
  ["O=C(CCn1c2c(c(=O)[nH]c1=O)COCC2)NCC(=O)N1CCN(c2ncccn2)CC1", "800 nM"],
  ["O=C(CCn1c2c(c(=O)[nH]c1=O)CSCC2)NCC(=O)c1ccc(Oc2ccccc2)cc1", "30 nM"],
  ["O=C(CCn1c2c(c(=O)[nH]c1=O)CSCC2)NCC(=O)c1ccc(-c2ccncc2)cc1", "15 nM"],
  ["O=C(CCn1c2c(c(=O)[nH]c1=O)CC=CCC2)NCC(=O)N1CCN(c2ncccn2)CC1", "900 nM"],
  ["COc1ccc(C(=O)CNC(=O)CCn2c3c(c(=O)[nH]c2=O)CCCC3)cc1", "300 nM"],
  ["O=C(CCn1c2c(c(=O)[nH]c1=O)CCCC2)NCC(=O)c1ccc(Br)cc1", "80 nM"],
  ["O=C(CCn1c2c(c(=O)[nH]c1=O)CSCC2)NCC(=O)c1ccc(OC(=O)c2ccccc2)cc1", "30 nM"],
  ["O=C(CCn1c2c(c(=O)[nH]c1=O)CSCC2)NCC(=O)N1CCN(c2ncccc2C(F)(F)F)CC1", "40 nM"],
  ["COc1ccc(-c2ccc(C(=O)CNC(=O)CCn3c4c(c(=O)[nH]c3=O)CSCC4)cc2)cc1", "15 nM"],
  ["O=C(CCn1c2c(c(=O)[nH]c1=O)CSCC2)NCC(=O)N1CCN(c2ccccn2)CC1", "35 nM"]
]}
